EC50 (ng/ml) n2, inhibition of Heregulin-induced ErbB2 phosphorylation in MCF7 cells by entry:
Target: human ErbB2, full length, on cells (human, UniProt P04626 23-1255)
Assay: cell-based or functional assay
measurement.name: EC50 (ng/ml) n2, inhibition of Heregulin-induced ErbB2 phosphorylation in MCF7 cells (ng/mL)

[
  {
    "binder": "monoclonal antibody 1.100.1 (antibody, V domains shown, Fully human IgG (gamma/kappa) from a XenoMouse XM3B-3 hybridoma; constant regions not tied to it; also called 1.100.2; 1.100.3) VH: EVQLVESGGGLVKPGGSLRLSCAASGFTFSSYSMNWVRQAPGKGLEWVSSISSSSSYIYYADSVKGRFTISRDNAKNSLYLQMNSLRAEDTAVYYCARGGDGYNYYYFDYWGQGTLVTVSS VL: DIVMTQSPDSLAVSLGERATITCKSSQSVFFRSNNKNCLAWYQQRPGQPPNLLIYWASTRESGVPDRFSGSGCGTDFTLTISSLQAEDVAVYYCQQYFGSPFTFGPGTKVDIK",
    "units": "ng/mL",
    "observed.result": 33.7
  },
  {
    "binder": "monoclonal antibody 1.96 (antibody, V domains shown, Fully human IgG (gamma/kappa) from a XenoMouse XM3B-3 hybridoma; constant regions not tied to it) VH: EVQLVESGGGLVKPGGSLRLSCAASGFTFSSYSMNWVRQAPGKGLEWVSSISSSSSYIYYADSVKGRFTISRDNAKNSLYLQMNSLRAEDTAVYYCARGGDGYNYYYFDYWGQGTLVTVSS VL: DIVMTQSPDSLAVSLGERATITCKSSQSVFFRSNNKNCLAWYQQRPGQPPNLLFYWASTRESGVPDRFSGSGSGTDFTLTISSLQAEDVAVYYCQQYFGSPFTLGPGTKVDIK",
    "units": "ng/mL",
    "observed.result": 34
  }
]
